- test summary: in vivo
- experimental conditions: SD, rat, po, 5 mg/kg
observable: AUC(0-inf) (µg·h/mL)

1) O=C(O)[C@H]1C2CCC(CC2)[C@@H]1Nc1nc(-c2c[nH]c3ncc(Cl)nc23)nc2c1ccn2C(CF)CF	6.17
2) O=C(O)[C@H]1C2CCC(CC2)[C@@H]1Nc1nc(-c2c[nH]c3ncc(Cl)nc23)nc(-c2ccc(Cl)s2)c1F	23.8
3) O=C(O)[C@H]1C2CCC(CC2)[C@@H]1Nc1nc(-c2c[nH]c3ncc(Cl)nc23)ncc1F [Compound A, reference compound]	2.91
4) O=C(O)[C@H]1C2CCC(CC2)[C@@H]1Nc1nc(-c2c[nH]c3ncc(Cl)nc23)nc(-c2cccs2)c1F	29
